# Assay Protocol: Toxicity liver stage against HepG2, at 10uM
# Format: cell-based
# Design: test concentration 10 uM, cell line HepG2-A16-CD81EGFP
# Condition Info: human, HepG2-A16-CD81EGFP cells; read-out: INHIBITION
What cytotoxicity at 10 µM was measured for each of the following?
Numbers only, in %.

# annotated cases, reported cytotoxicity at 10 µM shown
COc1ccccc1C1(C(=O)NCCN2CCOCC2)CCOCC1 : -11.6
CN(Cc1n[nH]c2c1CCCC2)c1nc2c(c(=O)[nH]1)CCNCC2 : -20.1
c1cc(CNCc2ccnc(N3CCCC3)c2)c2c(c1)OCCCO2 : 26.6
Cc1ccc(NC2(C(=O)N3CCn4cncc4C3)CCCCC2)cc1C : 8.47

**Q:** What measured cytotoxicity at 10 µM goes with COc1cccc(CNc2nnc(C(C)(C)C)o2)c1OC ?
**A:** -0.508
